Target: T1, human AMHRII (anti-Mullerian hormone receptor type 2) (human, UniProt Q16671 18-573)
T1 construct: whole, on cells; also called AMHR2; human AMHR2
T1 sequence (looked up): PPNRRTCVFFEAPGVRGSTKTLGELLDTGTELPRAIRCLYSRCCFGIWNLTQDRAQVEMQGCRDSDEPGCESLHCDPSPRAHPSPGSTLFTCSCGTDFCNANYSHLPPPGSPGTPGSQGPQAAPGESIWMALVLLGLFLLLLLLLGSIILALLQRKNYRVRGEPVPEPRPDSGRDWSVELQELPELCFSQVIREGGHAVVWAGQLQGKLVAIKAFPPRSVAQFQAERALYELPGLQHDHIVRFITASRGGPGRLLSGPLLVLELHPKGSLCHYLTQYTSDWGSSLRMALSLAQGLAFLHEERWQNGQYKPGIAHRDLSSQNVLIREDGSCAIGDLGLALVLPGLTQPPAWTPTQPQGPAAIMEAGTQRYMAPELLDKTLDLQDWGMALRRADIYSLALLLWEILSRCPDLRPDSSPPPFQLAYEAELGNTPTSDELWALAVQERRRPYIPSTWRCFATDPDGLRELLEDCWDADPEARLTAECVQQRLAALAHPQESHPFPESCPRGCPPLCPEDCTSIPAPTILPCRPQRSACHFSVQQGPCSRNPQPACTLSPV
Experiment: FACS on CHO-K1 cells over-expressing human AMHR2
// reported EC50 per item
Just the number please, in nM, no unit attached.

These solved cases illustrate the format of a correct answer.
[[record]]
binder = "31D9B3 VH1.1-VL2.2 hIgG1 (antibody, V domains shown, Humanized, PTM de-risked, human IgG1; also called 31D9B3 VH1.1-VL2.2 hlgG1) VH: QVQLVQSGAEVKKPGASVKVSCKASGYTFTDYWVSWVRQAPGQGLEWMGEIYPKEGVSNFNEKFKGRVTMTTDTSTSTAYMELRSLRSDDTAVYYCARQRDYWGQGTLVTVSS VL: DVVMTQSPLSLPVTLGQPASISCRSSQSLEYGDRYTYLEWYLQRPGQSPRLLIYGVSNRFSGVPDRFSGSGSGTDFTLKISRVEAEDVGVYYCFQATHDPNTFGQGTKLEIK"
val = 0.625

[[record]]
binder = "31D9B3 VH1-VL2.3 hIgG1 (antibody, V domains shown, Humanized, PTM de-risked (VL D(30C)T), human IgG1; also called 31D9B3 VH1-VL2.3 hlgG1) VH: QVQLVQSGAEVKKPGASVKVSCKASGYTFTDYWVSWVRQAPGQGLEWMGEIYPKNGVSNFNEKFKGRVTMTTDTSTSTAYMELRSLRSDDTAVYYCARQRDYWGQGTLVTVSS VL: DVVMTQSPLSLPVTLGQPASISCRSSQSLEYGTGYTYLEWYLQRPGQSPRLLIYGVSNRFSGVPDRFSGSGSGTDFTLKISRVEAEDVGVYYCFQATHDPNTFGQGTKLEIK"
val = 0.331


Then this binder:
IN: Tell us which EC50 value is on record for 108F3D1E9 H2L1 hIgG1 (antibody, V domains shown, Humanized, human IgG1; also called 108F3D1E9 H2L1 hlgG1) VH: QLQLQESGPGLVKPSETLSLTCTVSGYSITSDFAWNWIRQPPGKGLEWMGYISFSGSTSYNPSLKSRVTISRDTSKNQFSLKLSSVTAADTAVYYCAGSRYSWFAYWGQGTLVTVSS VL: DIQMTQSPSSLSASVGDRVTITCRASESVDTYGNSFMHWYQQKPGKAPKLLIYRASNLESGVPSRFSGSGSGTDFTLTISSLQPEDFATYYCQQSNEDPYTFGGGTKVEIK
OUT: 0.55
